Data origin: PubChem BioAssay AID602399

Tested on: Nicotinate-nucleotide adenylyltransferase NadD (Staphylococcus aureus N315)
experimentDescription: inhibitors of S. aureus NadD, primary screen, biochemical, colorimetric, uHTS (AID 602399)
experimentalParameters: purified NadD enzyme, colorimetric absorbance read-out; at 20 µM
In all, about 360,000 compounds went through this assay and about 2,800 (0.78%) were called active. No stated cut-off is given here; in the data, active means inhibition above about 26%; inactive means the rest. For the sample, actives were picked, then their nearest neighbours and some compounds at random.
Write down one outcome, taken from active, inactive

I'd appreciate the recorded outcome for COC(=O)c1ccc(C2NC(=O)NC(C)=C2C(=O)N(C)C)cc1 (stereo unspecified) from this test.
inactive

Another molecule: COC(=O)CSc1nc2c(c(C3CC=CCC3)c1C#N)CCC2 (stereo unspecified)
inactive

Cool, now CCOC(=O)C1=C(C)Nc2sc(C(=O)c3ccc(Br)cc3)c(N)c2C1c1ccc(C(=O)OC)cc1 (stereo unspecified)
active

Repeat for the following molecule: Cn1ncc([N+](=O)[O-])c1C(=O)Nc1cc(Cl)ccc1Cl
inactive

Try the molecule Cn1c(N)c(C(=O)COC(=O)c2cccc(S(=O)(=O)N3CCOCC3)c2)c(=O)n(C)c1=O
inactive

// next record CCOc1ccc(CCN2C(=S)N([C@@H](CC(C)C)CN3CCC[C@@H]3CN3C(=S)NC[C@@H]3Cc3ccc(O)cc3)C[C@@H]2Cc2ccc(O)cc2)cc1
active

Same again, this time with Cc1cccc(-c2c(NC(=O)c3ccco3)oc3ccc(Cl)cc3c2=O)c1
inactive

Would you kindly repeat that for COc1cc(C2c3cc4c(cc3C(O)C3COC(=O)C23)OCO4)cc(OC)c1OC (stereo unspecified) ?
inactive

Same read-out for CCC1C(C#N)=C(SC)NC2=C1C(=O)CC(C)(C)C2 (stereo unspecified) ?
inactive

Cool, now COC(=O)c1ccc(/C=N/N2C(C)CCCC2C)cc1 (stereo unspecified)
inactive

Follow-up entry: Nc1cccnc1Sc1ccccc1
inactive

One more molecule: Cc1cccn2c(CN(C)C3CCCc4ccccc43)c(C(=O)N3CCOCC3)nc12 (stereo unspecified)
inactive

Another molecule: S=c1[nH]nc(Nc2ccccc2)s1
active

Next up: O=C(Nc1nnc(-c2ccc(Cl)cc2)o1)c1ccccc1Br
inactive

Thanks! And CCOc1ccc2nc(/N=C/c3nc(-c4ccccc4)oc3O)sc2c1 ?
active

Cool, now S=c1[nH]nc(NCCc2ccccc2)s1
inactive

Next: COc1ccc(-c2ccc(CN3C(C(C)C)C(=O)N(Cc4cn(CC5CCCCC5)nn4)CCS3(=O)=O)cc2)cn1 (stereo unspecified)
inactive

And COc1ccc(N2CCN(c3ccc([N+](=O)[O-])nc3)CC2)cc1 ?
inactive

Again, but for O=C(CNC(=O)c1cccs1)N/N=C/c1cccc(Br)c1
inactive

Check Cc1ccc(C(=O)NN(CCC#N)C2=NS(=O)(=O)c3ccccc32)cc1 too.
inactive

Please answer likewise for C/C(=N\NC(=O)OC(C)(C)C)c1ccc[nH]1
inactive

Another molecule to look at: COc1ccc(S(=O)(=O)N2CCC(C(=O)OCC(=O)c3ccccc3)CC2)cc1[N+](=O)[O-]
inactive

Another molecule to check: Cc1c(C(=O)OC(C)C)sc(NC(=O)c2cccnc2)c1C#N
inactive

Next record, please: Cc1cc(O)c(Sc2ccccc2)c(=O)o1
inactive

Entry COC(=O)[C@]12CCCCC=C1N(Cc1ccc(Cl)cc1Cl)C(=O)[C@H](CC(=O)NCc1cccc3ccccc13)C2 please
inactive

What do you have for c1ccc(CN2CCC(N=C3NN=C(c4ccc5c(c4)OCCO5)CS3)CC2)cc1 ?
inactive

Field entry: O=C(Nc1nnc(-c2ccccc2)o1)c1cc(-c2cccs2)nc2ccccc12
active

Also CCOc1ccc(CCN2C(=O)C(=O)N([C@@H](CC(C)C)CN3CCC[C@H]3CN3C(=O)C(=O)NC[C@@H]3Cc3ccccc3)C[C@@H]2CC(C)C)cc1 , if possible.
inactive

Subsequent entry: CC(=O)NC(Cc1c[nH]c2ccccc12)C(=O)NCCc1ccccc1 (stereo unspecified)
inactive

And COc1ccc(C(NC(=O)C2CCN(CCCc3ccccc3)CC2)c2cccs2)cc1 (stereo unspecified) ?
inactive

O=C1CCCN2N=C(SCC(=O)Nc3ccc(Br)cc3)SC2=N1 ?
inactive

And the next one, NS(=O)(=O)c1ccc(NS(=O)(=O)/C=C/c2ccccc2)cc1 ?
inactive

What do you have for Cc1ccc(NS(=O)(=O)c2ccc(N/N=C/c3ccccc3OCC(=O)O)c([N+](=O)[O-])c2)c(C)c1 ?
active

Then this molecule: COc1ccc(CC(=O)Nc2sc(Cc3ccccc3)c(C)c2C(N)=O)cc1
inactive

Further, for COc1ccc(Cc2nnc(NC(=O)Cc3cccs3)s2)cc1 ?
active

Now this one: O=C(NC(Cc1c[nH]c2ccccc12)C(=O)N/N=C/c1ccc(Br)cc1)c1cccs1 (stereo unspecified)
active

Item: Oc1oc(-c2ccccc2Br)nc1/C=N/c1ccccn1
inactive

Do the same for CC(C)C[C@H]1CNC(=O)C(=O)N1C[C@H]1CCCN1C[C@H](Cc1ccc(O)cc1)N1C[C@H](CC(C)C)N(CC2CCCCCC2)C(=O)C1=O please
inactive

Follow-up item: O=C(COC(=O)/C=C/c1cccc(Cl)c1)NCCc1ccccc1
inactive

What would you report for Clc1cccc(N=C2NN=C(c3ccc4c(c3)OCCO4)CS2)c1 ?
active

And CCn1c(SCC(=O)N/N=C/c2ccccc2OCC(=O)O)nnc1-c1ccc(C(C)(C)C)cc1 ?
inactive
